Data credit: paper PMC6013774

molecular target: AhbD (Methanosarcina barkeri, UniProt Q46CH7)
Sequence (Q46CH7 whole entry): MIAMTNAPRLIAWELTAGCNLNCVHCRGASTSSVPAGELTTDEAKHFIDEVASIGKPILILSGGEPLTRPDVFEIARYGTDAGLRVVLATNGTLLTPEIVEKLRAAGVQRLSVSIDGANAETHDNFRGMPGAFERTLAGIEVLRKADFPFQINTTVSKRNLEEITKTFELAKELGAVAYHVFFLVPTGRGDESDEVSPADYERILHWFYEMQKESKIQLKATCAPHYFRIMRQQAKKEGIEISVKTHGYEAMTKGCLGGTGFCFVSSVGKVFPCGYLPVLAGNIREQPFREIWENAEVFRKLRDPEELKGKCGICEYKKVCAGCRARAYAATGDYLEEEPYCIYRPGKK
Readout name: Kd (µM)

>>> df
                               entry_smiles  readout_name  reading
0  CC1=C(CCC(=O)O)c2cc3nc(cc4[nH]c(cc5[nH]c(cc1n2)c(C)c5CCC(=O)O)c(CCC(=O)O)c4C)C(CCC(=O)O)=C3C            Kd     33.9
